Reported pIC50 values for the following compounds.
Assayed system: mTOR/GbL/Raptor (mTORC1) (Homo sapiens)
Assay name: mTOR/GbL/Raptor (mTORC1) ELISA assay
Conditions: phosphorylation of 4E-BP1; 0.2 nM mTORC1, 10 μM ATP; read-out: IC50 in this assay (mTORC1 ELISA)
pIC50: −log10 of the molar value.

Here's what some known entries look like.
pIC50 lookup needed for CC1(C)CCc2ncnc(N3CCOc4ccc(-c5cnc(N)c(S(=O)(=O)N[C@H]6CCNC6)c5)cc4C3)c2C1 [Example 390] , thanks. 7.30 to 8.00

# iterate: Cc1nc2ccc(-c3ccc4c(c3)CN(c3ncnc(C)c3C(C)c3cccc(F)c3)CCO4)cc2[nH]1 (stereo not drawn) [Example 94] ≥ 8.00

# iterate: Cc1nc2c(c(N3CCOc4ccc(-c5cnc(N)c(S(=O)(=O)NCC6CCN(C)CC6)c5)cc4C3)n1)CC(C)(C)CC2 [Example 419] 6.00 to 6.60

# iterate: Cn1c(N)nc2cc(-c3ccc4c(c3)CN(c3ccnc5ccccc35)CCO4)ccc21 [Example 116] 5.70 to 6.00

# iterate: Cc1nc(N2CCOc3ccc(-c4ccc(-c5ncc[nH]5)cc4)cc3C2)c2ccccc2n1 [Example 251] 7.30 to 8.00

More entries:
pIC50 lookup needed for Cc1c(NC2CCN(C)CC2)ncnc1N1CCOc2ccc(-c3cnc4nc(C5CC5)[nH]c4c3)cc2C1 [Example 531] , thanks. 6.00 to 6.60

# iterate: COc1ccc2ncnc(N3CCOc4ccc(-c5cnc6nc(N)[nH]c6c5)cc4C3)c2c1 [Example 182] 7.30 to 8.00

# iterate: COc1cc2nccc(N3CCOc4ccc(-c5cnc6nc(N)[nH]c6c5)cc4C3)c2cc1OC [Example 188] 6.60 to 7.30

# iterate: CC1(C)CCc2ncnc(N3CCOc4ccc(-c5cnc(N)c(S(=O)(=O)NC6CCC6)c5)cc4C3)c2C1 [Example 427] 6.60 to 7.30

# iterate: COc1ccc2c(N3CCOc4ccc(-c5ccc(-c6ncc[nH]6)cc5)cc4C3)nc(C)nc2c1 [Example 256] 7.30 to 8.00

# iterate: Cc1nc2ncc(-c3ccc4c(c3)CN(c3nc(CN(C)C)nc5ccc(F)cc35)CCO4)cc2[nH]1 [Example 359] 6.00 to 6.60

# iterate: C[C@@H](CO)CS(=O)(=O)c1cc(-c2ccc3c(c2)CN(c2ncnc4c2CC(C)(C)CC4)CCO3)cnc1N [Example 301] 7.30 to 8.00

# iterate: CC1(C)CCc2ncnc(N3CCOc4ccc(-c5cnc(N)c(S(=O)(=O)NCC(F)(F)F)c5)cc4C3)c2C1 [Example 365] 7.30 to 8.00

# iterate: CCNc1nc2ccc(-c3ccc4c(c3)CN(c3nc(C)nc5cc(OC)ccc35)CCO4)cc2[nH]1 [Example 237] 6.00 to 6.60

# iterate: Cc1nc2ccc(-c3ccc4c(c3)CN(c3ncnc5c3CCC(C)C5)CCO4)cc2[nH]1 (stereo not drawn) [Example 63] 6.60 to 7.30

# iterate: CC1(C)CCc2ncnc(N3CCOc4ccc(-c5cnc(N)c(S(=O)(=O)N6CC7CNCC7C6)c5)cc4C3)c2C1 (stereo not drawn) [Example 511] 6.60 to 7.30

# iterate: CN1CCN(S(=O)(=O)c2cc(-c3ccc4c(c3)CN(c3ncnc5c3CC(C)(C)CC5)CCO4)cnc2N)CC1 [Example 516] 6.60 to 7.30

# iterate: COC(=O)Nc1nc2ccc(-c3ccc4c(c3)CN(c3ccnc5ccccc35)CCO4)cc2[nH]1 [Example 114] 6.00 to 6.60

# iterate: Cc1nc2ncc(-c3ccc4c(c3)CN(c3nc(CN(C)C)nc(C)c3CC3CC3)CCO4)cc2[nH]1 [Example 346] 6.60 to 7.30

# iterate: CC1(C)CCc2ncnc(N3CCOc4ccc(-c5cnc(Cl)c(NS(C)(=O)=O)c5)cc4C3)c2C1 [Example 623] 7.30 to 8.00

# iterate: c1ccc2c(N3CCOc4ccc(-c5cn[nH]c5)cc4C3)ccnc2c1 [Example 137] 5.70 to 6.00

# iterate: CCc1c(C)ncnc1N1CCOc2ccc(-c3ccc4nc(C)[nH]c4c3)cc2C1 [Example 64] 6.60 to 7.30

# iterate: CC[C@H]1CCc2c(ncnc2N2CCOc3ccc(-c4cnc(N)c(S(=O)(=O)N5CCC(C)(N)C5)c4)cc3C2)C1 (stereo partly drawn) [Example 442] 7.30 to 8.00

# iterate: Cc1nc2ncc(-c3ccc4c(c3)CN(c3nc(CN5CCOCC5)nc5c3CC(C)(C)CC5)CCO4)cc2[nH]1 [Example 498] 6.60 to 7.30
